targetOfAssay: IDH1 wt/IDH1 R132C heterodimer (Homo sapiens (Human), UniProt O75874, R132C)
Sequence (O75874 whole entry R132C): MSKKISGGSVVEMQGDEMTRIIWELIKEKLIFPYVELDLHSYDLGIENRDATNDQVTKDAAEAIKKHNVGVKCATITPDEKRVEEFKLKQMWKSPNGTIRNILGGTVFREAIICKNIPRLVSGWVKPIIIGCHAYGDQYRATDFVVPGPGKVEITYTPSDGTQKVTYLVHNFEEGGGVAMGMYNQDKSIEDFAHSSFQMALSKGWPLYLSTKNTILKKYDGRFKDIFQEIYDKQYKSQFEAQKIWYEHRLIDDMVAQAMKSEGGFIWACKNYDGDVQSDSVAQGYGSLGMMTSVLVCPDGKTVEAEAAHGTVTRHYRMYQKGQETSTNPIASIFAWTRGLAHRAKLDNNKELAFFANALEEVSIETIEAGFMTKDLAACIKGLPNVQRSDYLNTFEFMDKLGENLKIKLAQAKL
Sequence (O75874 whole entry, stated change not applied): as the sequence (O75874 whole entry R132C) above, with C132R counted along it
testProtocol: In vitro assay for IDH1m R132C inhibitors, IDH1 wt/IDH1 R132C heterodimer, NADPH depletion (diaphorase/resazurin)
setupConditions: NADPH/NADP
pIC50: −log10 of the molar value.
This listing pairs compounds with measured pIC50.

{"compound": "CC(C)(O)CNc1nc(Nc2cccc(Cl)c2)nc(-c2cccc(C(F)(F)F)n2)n1 [Compound 248]", "pIC50": "6.00 to 7.00"}
{"compound": "FC1(F)CCC(Nc2nc(NC3Cc4ccccc4C3)nc(-c3cccc(C(F)(F)F)n3)n2)C1 (stereo not shown) [Compound 152]", "pIC50": "> 7.30"}

Query: Please report pIC50 for the following compound: FC1(F)CCC(Nc2nc(Nc3ccnc(C(F)(F)F)c3)nc(-c3cccc(C(F)(F)F)n3)n2)C1 (stereo not shown) [Compound 178]
Reply: > 7.30

Query: Supply recorded pIC50 for CC(C)(C)Nc1nc(Nc2cc(F)cc(C#N)c2)nc(-c2nccc(C(F)(F)F)n2)n1 [Compound 245] here.
Reply: 6.00 to 7.00

Query: Give pIC50 for the following compound: CC(C)(C#N)Nc1nc(Nc2ccnc(C(C)(F)F)c2)nc(-c2cccc(C(F)(F)F)n2)n1 [Compound 247]
Reply: 7.00 to 7.30

Query: Specify reported pIC50 for the compound shown: C[C@@H](Nc1nc(N[C@H](C)C2CC2)nc(-n2cc(I)cn2)n1)C1CC1 [Compound 279]
Reply: 6.00 to 7.00

Query: Item CC(C)(CC#N)Nc1nc(Nc2ccnc(C(C)(F)F)c2)nc(-c2cccc(C(F)(F)F)n2)n1 [Compound 231] : provide pIC50
Reply: 7.00 to 7.30

Query: For the compound C[C@@H](Nc1nc(NCCOc2ccccc2)nc(-c2cccc(C(F)(F)F)n2)n1)C1CC1 [Compound 246] , give its reported pIC50.
Reply: 7.00 to 7.30

----------
System: HT1080 cells
testProtocol: Cellular assay for IDH1m R132C inhibitors, 2-HG by LC-MS in HT1080 cells
Type: cell-based
setupConditions: Homo sapiens, HT-1080
measuredProperty: IC50

Some solved cases for reference:
{"smilesStructure": "Fc1cc(F)cc(Nc2nc(NC3CC(F)(F)C3)nc(-c3nc(F)ccc3F)n2)c1", "targetOfAssay": "HT1080 cells", "measuredProperty": "IC50", "resultValue": "100 to 1000 nM"}
{"smilesStructure": "N#Cc1cc(F)cc(Nc2nc(NCC3CC3)nc(-c3cccc(C(F)(F)F)n3)n2)c1", "targetOfAssay": "HT1080 cells", "measuredProperty": "IC50", "resultValue": "100 to 1000 nM"}
{"smilesStructure": "Fc1ccc([C@H]2C[C@@H](Nc3nc(N[C@H]4C[C@@H](c5ccc(F)cc5)C4)nc(-c4cccc(C(F)(F)F)n4)n3)C2)cc1", "targetOfAssay": "HT1080 cells", "measuredProperty": "IC50", "resultValue": "100 to 1000 nM"}

Query: Give the measured IC50 for C[C@H](Nc1nc(N[C@H](C)C2CC2)nc(-c2cccc(C(F)(F)F)n2)n1)C1CC1
Reply: < 50 nM

----------
targetOfAssay: IDH1 wt/IDH1 R132C heterodimer (Homo sapiens (Human), UniProt O75874, R132C)
testProtocol: In vitro assay for IDH1m R132C inhibitors, IDH1 wt/IDH1 R132C heterodimer, NADPH depletion (diaphorase/resazurin)
setupConditions: NADPH/NADP
pIC50: −log10 of the molar value.
measuredProperty: pIC50

{"compound": "CC(CC#N)Nc1nc(Nc2ccnc(C(C)(F)F)c2)nc(-c2cccc(C(F)(F)F)n2)n1 (stereo not drawn) [Compound 250]", "pIC50": "6.00 to 7.00"}

Query: Answer with the recorded pIC50 for the compound listed here: N#CC1(c2cc(Nc3nc(NCC(F)(F)F)nc(-c4cccc(C(F)(F)F)n4)n3)ccn2)CC1 [Compound 226]
Reply: 7.00 to 7.30

Query: Give a short answer stating reported pIC50 for N#CC1(c2cc(Nc3nc(NC4CCC(F)(F)C4)nc(-c4cccc(C(F)(F)F)n4)n3)ccn2)CC1 (stereo not drawn) [Compound 151] .
Reply: > 7.30

Query: Identify the reported pIC50 for the following entry. C[C@@H](Nc1nc(N[C@H](C)C2CC2)nc(-n2ccc(C(F)(F)F)n2)n1)C1CC1 [Compound 121]
Reply: > 7.30

Query: Fill in reported pIC50 for this entry: Fc1ccc(F)c(-c2nc(NC3CCC(F)(F)CC3)nc(NC3CCC(F)(F)CC3)n2)n1 [Compound 276]
Reply: 6.00 to 7.00

Query: Tell me its pIC50 given CC(F)(F)c1cccc(-c2nc(NC3CCC(F)(F)C3)nc(NC3CCC(F)(F)C3)n2)n1 (stereo not drawn) [Compound 105] as the entry.
Reply: > 7.30

Query: Quickly give me recorded pIC50 for FC1(F)CCC(Nc2nc(NC3CCN(Cc4ccccc4)C3)nc(-c3cccc(C(F)(F)F)n3)n2)C1 (stereo not drawn) [Compound 280]
Reply: ≤ 6.00

Query: Supply recorded pIC50 for C[C@@H](Nc1nc(N[C@H](C)C2CC2)nc(-c2nccc(C(F)(F)F)n2)n1)C1CC1 [Compound 268] here.
Reply: > 7.30

----------
Measured IC50 by item
targetOfAssay: IDH1 wt/IDH1 R132H heterodimer (Homo sapiens (Human), UniProt O75874, R132H)
Sequence (O75874 whole entry, stated change not applied, one chain of several): as the sequence (O75874 whole entry R132C) above, with C132R counted along it
testProtocol: In vitro assay for IDH1m R132H inhibitors, IDH1 wt/IDH1 R132H heterodimer, NADPH depletion (diaphorase/resazurin)
Type: biochemical
setupConditions: IDH1 wt/R132H heterodimer, NADPH/NADP, not saturated; read-out: IDH1 wt/R132H NADPH/NADP IC50 not saturated

Consider the reported IC50 for these compounds:
{"compound": "N#Cc1ccc2c(c1)CC(Nc1nc(NC3CCC(F)(F)C3)nc(-c3cccc(C(F)(F)F)n3)n1)C2 (stereo not shown)", "resultValue": "0.05 to 0.1 µM"}
{"compound": "COC(=O)c1cccc(-c2nc(N[C@H](C)C3CC3)nc(N[C@H](C)C3CC3)n2)n1", "resultValue": "> 1 µM"}
{"compound": "FC1(F)CC(Nc2nc(NC3CC(F)(F)C3)nc(-c3cccc(OC(F)(F)F)n3)n2)C1", "resultValue": "0.1 to 1 µM"}

Query: Recall the reported IC50 of C[C@@H](Nc1nc(NC(C(F)(F)F)C(F)(F)F)nc(-c2cccc(Cl)n2)n1)C(F)(F)F on IDH1 wt/IDH1 R132H heterodimer (Homo sapiens (Human), UniProt O75874, R132H) and write it down.
Reply: < 0.05 µM

----------
Let's look at some compounds and their measured pIC50.
targetOfAssay: IDH1 wt/IDH1 R132H heterodimer (Homo sapiens (Human), UniProt O75874, R132H)
testProtocol: In vitro assay for IDH1m R132H inhibitors, IDH1 wt/IDH1 R132H heterodimer, NADPH depletion (diaphorase/resazurin)
Assay type: biochemical
setupConditions: IDH1 wt/R132H heterodimer, NADPH/NADP, not saturated; read-out: IDH1 wt/R132H NADPH/NADP IC50 not saturated
pIC50: −log10 of the molar value.

{"compound": "CC(C)(CC#N)Nc1nc(Nc2ccnc(C(C)(F)F)c2)nc(-c2cccc(C(F)(F)F)n2)n1", "pIC50": "> 7.30"}
{"compound": "CC(Nc1nc(Nc2cc(F)cc(C#N)c2)nc(-n2ccc(C(F)(F)F)n2)n1)C(F)(F)F (stereo not drawn)", "pIC50": "> 7.30"}
{"compound": "Fc1ccc2c(c1)CC(Nc1nc(NC3CCC(F)(F)C3)nc(-c3cccc(C(F)(F)F)n3)n1)C2 (stereo not drawn)", "pIC50": "> 7.30"}
{"compound": "CC(C)(C#N)Nc1nc(Nc2ccnc(C(C)(F)F)c2)nc(-c2cccc(C(F)(F)F)n2)n1", "pIC50": "7.00 to 7.30"}
{"compound": "CC(=O)N1CCC(Nc2nc(NC3CCC(F)(F)CC3)nc(-c3cccc(C(F)(F)F)n3)n2)CC1", "pIC50": "6.00 to 7.00"}

Query: Return the recorded pIC50 value; entry: FC1(F)CC(Nc2nc(NC3CC(F)(F)C3)nc(-c3csc(C(F)(F)F)n3)n2)C1
Reply: > 7.30

Query: Return pIC50 (reported value) for this compound: N#CC1(c2cc(Nc3nc(NC4CCC(F)(F)C4)nc(-n4ccc(C(F)(F)F)n4)n3)ccn2)CC1 (stereo not drawn)
Reply: > 7.30

----------
targetOfAssay: IDH1-R132H homodimer enzyme (Homo sapiens (Human), UniProt O75874, R132H)
Sequence (O75874 whole entry R132H): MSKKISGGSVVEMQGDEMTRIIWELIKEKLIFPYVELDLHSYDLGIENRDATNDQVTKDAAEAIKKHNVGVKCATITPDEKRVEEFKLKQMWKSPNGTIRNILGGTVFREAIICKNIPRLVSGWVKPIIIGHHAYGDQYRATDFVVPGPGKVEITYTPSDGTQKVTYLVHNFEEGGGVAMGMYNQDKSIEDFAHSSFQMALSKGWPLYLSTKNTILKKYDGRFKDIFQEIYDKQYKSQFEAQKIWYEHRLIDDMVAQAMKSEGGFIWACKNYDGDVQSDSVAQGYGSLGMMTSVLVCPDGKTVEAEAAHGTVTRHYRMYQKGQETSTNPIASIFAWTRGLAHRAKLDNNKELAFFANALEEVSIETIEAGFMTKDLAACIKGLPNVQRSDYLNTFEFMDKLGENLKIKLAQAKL
testProtocol: In vitro assay IDH1-R132H homodimer, NADPH depletion assay with NADPH/NADP preincubation
setupConditions: 5 μM NADPH and 37.5 μM NADP
pIC50: −log10 of the molar value.
measuredProperty: pIC50

Solved cases below.
{"compound": "CC(Nc1nc(Nc2cc(F)cc(F)c2)nc(-n2ccc(C(F)(F)F)n2)n1)C(F)(F)F (stereo not shown) [Compound 107]", "pIC50": "> 7.30"}
{"compound": "C[C@@H](Nc1nc(Nc2ccnc(C#N)c2)nc(-n2ccc(C(F)(F)F)n2)n1)C(F)(F)F [Compound 207]", "pIC50": "7.00 to 7.30"}
{"compound": "COc1ccc(F)c(-c2nc(NC3CCC(F)(F)CC3)nc(NC3CCC(F)(F)CC3)n2)n1 [Compound 321]", "pIC50": "< 6.00"}
{"compound": "FC(F)(F)c1cc(Nc2nc(NCC3CC3)nc(-c3cccc(Cl)n3)n2)ccn1 [Compound 200]", "pIC50": "7.00 to 7.30"}
{"compound": "N#CC1(c2cc(Nc3nc(NC4CCC(F)(F)C4)nc(-n4ccc(C(F)(F)F)n4)n3)ccn2)CC1 (stereo not shown) [Compound 185]", "pIC50": "> 7.30"}
{"compound": "FC1(F)CC(Nc2nc(NC3CC(F)(F)C3)nc(-n3ccc(C(F)(F)F)n3)n2)C1 [Compound 126]", "pIC50": "7.00 to 7.30"}

Query: Using known records, supply pIC50 for Fc1cc(F)cc(Nc2nc(NC3CCC(F)(F)C3)nc(-c3nc(C(F)(F)F)cs3)n2)c1 (stereo not shown) [Compound 159]
Reply: > 7.30

Query: Answer with the recorded pIC50 for the compound listed here: Fc1cc(F)cc(Nc2nc(NC3CCC(F)(F)C3)nc(-n3ccc(C(F)(F)F)n3)n2)c1 (stereo not shown) [Compound 108]
Reply: > 7.30

Query: Report pIC50 for CC[C@@H](Nc1nc(N[C@H](CC)C(F)(F)F)nc(-c2cccc(Cl)n2)n1)C(F)(F)F [Compound 104]
Reply: > 7.30

Query: Provide pIC50 value for the following compound: FC1(F)CCC(Nc2nc(NC3Cc4ccccc4C3)nc(-c3cccc(C(F)(F)F)n3)n2)C1 (stereo not shown) [Compound 152]
Reply: > 7.30

Query: Return pIC50 for the following compound: N#Cc1cc(F)cc(Nc2nc(NC3CCC(F)(F)C3)nc(-c3nc(C(F)(F)F)cs3)n2)c1 (stereo not shown) [Compound 132]
Reply: > 7.30
